The measurements presented in this section are drawn from PubChem BioAssay (Tox21).

- Test Summary: qHTS assay to identify small molecule antagonists of the peroxisome proliferator-activated receptor gamma (PPARg) signaling pathway - cell viability counter screen (AID 743194); further: nearly all actives have a fitted effect of over 55% in size
- Setup Conditions: PPARg-bla HEK293H viability, CellTiter-Glo luminescence, 17 h, co-treated with 50 nM rosiglitazone; series mostly up to 62.6 µM
Results filed as inconclusive are left out. Calls of active or inactive are those of the source. The call rests on the fitted dose curve; in most records, active means well fitted cell-killing curve with a large enough effect in the repeat runs; inconclusive means weak or mixed curves, or effect the other way; inactive means no such curve, though single readings can be large or run the other way.
Allowed answers: active, inactive

Record request — test call for CCCCCCC[N+](CC)(CC)CCCCc1ccc(Cl)cc1
inactive

Record request — test call for NNc1nc(-c2ccccc2)cs1
inactive

More entries:
Record request — test call for CCCCN1CCCC[C@H]1C(=O)Nc1c(C)cccc1C
inactive

Record request — test call for CC(C)CCCCCCCCCCCCCCC(=O)O
inactive

Record request — test call for CCCCCCCCCCCCCC[P+](CCCC)(CCCC)CCCC (tested in a mixture with another compound)
active

Record request — test call for CC(C)=CCOc1ccc(/C=C/C(=O)c2ccc(OCC=C(C)C)cc2OCC(=O)O)cc1
active

Record request — test call for CC(C)(C)c1ccc(C(=O)O)cc1
inactive

Record request — test call for CCCCCCOC(=O)c1ccc(O)cc1
inactive

Record request — test call for CCOC(=O)O[C@]1(C(=O)OCCl)CC[C@H]2[C@@H]3CCC4=CC(=O)C=C[C@]4(C)[C@H]3[C@@H](O)C[C@@]21C
inactive

Record request — test call for CCCCCCCCOC(=O)c1ccc(O)cc1
inactive

Record request — test call for CCCCCCCCS(=O)C(C)Cc1ccc2c(c1)OCO2 (stereo unspecified)
inactive

====

- Test Summary: qHTS RealTime-Glo MT Cell Viability Assay in HEK293 cells - 32 hour (AID 1224868); further: nearly all actives have a fitted effect of over 50% in size
- Setup Conditions: RealTime-Glo luminescence; series mostly up to 76.8 µM
Records with an inconclusive call do not appear. Calls of active or inactive are those of the source. Calls come from the whole dose curve; as a rule, active = well fitted cell-killing curve with a large enough effect in the repeat runs; inconclusive = weak or mixed curves, or effect the other way; inactive = flat fitted curve, though single readings scatter.
Allowed answers: 1.0 (active), 0.0 (inactive)

Answered examples (2):
Record request — test call for CC1=C(/C=C/C(C)=C/C=C/C(C)=C/C=O)C(C)(C)CCC1
1.0

Record request — test call for C[C@@H]1C[C@H]2[C@@H]3CCC4=CC(=O)C=C[C@]4(C)[C@@]3(Cl)[C@@H](O)C[C@]2(C)[C@@]1(OC(=O)c1ccco1)C(=O)CCl
0.0

More entries:
Record request — test call for COc1ccc(CN2CCN(C(c3ccc(F)cc3)c3ccc(F)cc3)CC2)c(OC)c1OC
1.0

====

- Test Summary: qHTS assay to identify small molecule agonists of the NFkB signaling pathway - cell viability counter screen (AID 1159515); further: nearly all actives have a fitted effect of over 55% in size
- Setup Conditions: NFkB-bla ME-180 viability, CellTiter-Glo luminescence, 5 h; series mostly up to 61 µM
Inconclusive results are not listed. Activity calls are given as the source filed them. Calls come from the whole dose curve.
Allowed answers: t (active), f (inactive)

Answered examples (5):
Record request — test call for CN(C)[C@@H]1C(=O)C(C(N)=O)=C(O)[C@@]2(O)C(=O)C3=C(O)c4c(O)cccc4C[C@H]3C[C@@H]12
f

Record request — test call for N=C1N=C(N)c2ccccc21
f

Record request — test call for Cn1cc(C(=O)[C@@H]2CCc3nc[nH]c3C2)c2ccccc21
f

Record request — test call for Nc1cc(C(F)(F)F)ccc1S
f

Record request — test call for CCCCCCCC/C=C\CCCCCCCCOCCO
t

More entries:
Record request — test call for O=c1[nH]sc2ccccc12
t

Record request — test call for Cc1onc(-c2ccccc2Cl)c1C(=O)N[C@@H]1C(=O)N2[C@@H]1SC(C)(C)[C@@H]2C(=O)O
f

Record request — test call for CCCC(C)c1ccccc1O (stereo unspecified)
f

Record request — test call for Nc1c(Cl)cc(Cl)cc1Cl
f

Record request — test call for O=C1C=CC(=O)N1c1ccc(Cc2ccc(N3C(=O)C=CC3=O)cc2)cc1
t

Record request — test call for CC(C)(C)C(=O)OCOC(=O)[C@@H]1N2C(=O)[C@@H](NC(=O)[C@H](N)c3ccccc3)[C@H]2SC1(C)C
f
